Listed here are compounds together with their documented inhibition at 1 µM.
- System: KB
- assay_method_text: Cytotoxicity against human KB cells assessed as growth inhibition at 1 uM after 72 hrs by MTS assay
- Type: functional
Give your result in % as a bare value.

Examples with answers:
{"compound": "COc1ccc(-c2csc3c2-n2cccc2C3=O)cc1", "unit_text": "%", "value_measured": 92}
{"compound": "C/C(=C1\\CC(=O)c2cccn21)c1ccc(Cl)cc1", "unit_text": "%", "value_measured": 0}
{"compound": "COc1ccc(/C(C)=C2/CC(=O)c3cccn32)cc1", "unit_text": "%", "value_measured": 1}

// returns reported inhibition at 1 µM for input COc1ccc(/C(C)=C2/CC(=O)c3cccn32)cc1O 91

// returns reported inhibition at 1 µM for input COc1ccc(-c2csc3c2-n2cccc2C3=O)cc1O 86

// returns reported inhibition at 1 µM for input CC(C)C1CC(=O)c2cccn21 (stereo unspecified) 0

Cited source for all entries: ChEMBL document CHEMBL1154882
